target: GLEPP-1 (Homo sapiens, UniProt Q16827); construct: using the catalytic core of a human recombinant PTP, as an enzyme; assay: PTP Enzyme Assay (GLEPP-1); details: catalytic core of human recombinant PTP, DiFMUP substrate at Km, 30 minutes at room temperature; read-out: inhibition (IC50) with regard to GLEPP-1
Sequence (Q16827 938-1195 limits assumed): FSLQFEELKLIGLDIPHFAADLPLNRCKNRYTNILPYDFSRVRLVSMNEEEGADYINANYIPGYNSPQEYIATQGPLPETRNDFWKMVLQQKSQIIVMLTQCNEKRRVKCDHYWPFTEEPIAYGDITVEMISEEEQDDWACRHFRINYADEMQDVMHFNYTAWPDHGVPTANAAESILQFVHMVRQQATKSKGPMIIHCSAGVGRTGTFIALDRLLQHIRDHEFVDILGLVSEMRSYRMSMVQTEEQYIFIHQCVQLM
pIC50: −log10 of the molar value.
metricName: pIC50

[[record]]
compoundsmiles = "O=C(CCc1ccccc1)Nc1ccc(C(=O)NN=C2C(=O)Nc3ccc(I)cc32)cc1"
valuemeasured = "~6.30"

